assayedSystem: CYP2D6 (Homo sapiens, UniProt P10635)
Sequence (P10635 whole entry): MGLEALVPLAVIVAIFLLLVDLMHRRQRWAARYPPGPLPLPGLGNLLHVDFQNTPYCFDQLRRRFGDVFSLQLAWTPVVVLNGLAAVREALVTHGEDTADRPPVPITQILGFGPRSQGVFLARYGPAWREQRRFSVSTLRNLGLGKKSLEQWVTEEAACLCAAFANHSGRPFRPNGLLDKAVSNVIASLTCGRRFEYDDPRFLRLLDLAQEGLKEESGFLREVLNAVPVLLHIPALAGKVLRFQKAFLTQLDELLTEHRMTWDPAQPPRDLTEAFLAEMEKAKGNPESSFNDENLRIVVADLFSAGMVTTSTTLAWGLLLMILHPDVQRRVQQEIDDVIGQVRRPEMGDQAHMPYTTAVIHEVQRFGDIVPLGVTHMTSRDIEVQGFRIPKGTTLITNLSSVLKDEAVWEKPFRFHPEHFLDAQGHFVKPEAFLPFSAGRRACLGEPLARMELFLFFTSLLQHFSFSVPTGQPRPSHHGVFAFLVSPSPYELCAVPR
methodDescription: Reversible CYP inhibition in human liver microsomes
conditionSet: Dextromethorphan O-demethylation; T0
pIC50: −log10 of the molar value.
attributeMeasured: pIC50

### Prompt I am curious: what pIC50 value has been reported for "COc1cccc2[nH]c(C(=O)N[C@@H](CC(C)C)C(=O)N[C@@H](C[C@@H]3CCNC3=O)C(=O)COP(=O)(O)O)cc12" ?
### Response < 4.00

----------
methodDescription: Monkey pharmacokinetic study
conditionSet: male, Cynomolgus, cynomolgus monkey, plasma, iv, 1 mg/kg, Clearance, Mean, monkey, PF-00835231 active dosed 1mg/kg intravenous (crossover)
attributeMeasured: clearance (mL/min/kg)
Supply the numeric figure in mL/min/kg, leaving out any unit text.

### Prompt Need clearance of COc1cccc2[nH]c(C(=O)N[C@@H](CC(C)C)C(=O)N[C@@H](C[C@@H]3CCNC3=O)C(=O)CO)cc12 [PF-00835231] , thanks.
### Response 28.7
